- Test: binders of probe aFSTL3 on microarray, primary screen, stem cell growth factor project, biochemical, small-molecule microarray, fluorescence 635/667 (AID 1064);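 further: measures binding of the biotinylated anti-FSTL3 antibody to printed compounds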
- Measurement setup: higher = more signal
Overview of reported composite z-score across a group of compounds:
Reply briefly: the number, and no unit.

# example entries with known answers
CC(C)C(=C=CC[C@@H](O)c1cccc(OCCO)c1)CCO :: -0.226
O=C1OCCC/C=C\[C@H]2OC34C=CCN(Cc5ccccc5)C(=O)[C@H]3N(CCCCCO)C(=O)[C@@H]4C12 (some centres not stated) :: 0.566
O=c1cccc(-c2ccccc2C(F)(F)F)o1 :: 0.912
CCOC(=O)C1=CC[C@@H](c2ccc(F)cc2)N(S(=O)(=O)c2ccc(C)cc2)[C@H]1c1ccc([N+](=O)[O-])cc1 :: -0.283
Cc1c(NC(=O)/C(C#N)=C/c2ccc(Cl)cc2)c(=O)n(-c2ccccc2)n1C :: -0.268

For the next question, use this compound.
Short answer for CCCCN1CC=CC23O[C@@H]4/C=C\CCC(C)OC(=O)C4[C@H]2C(=O)N(C(C)CO)[C@@H]3C1=O (some centres not stated) : composite z-score was -0.126
